Target: T1, Boi1, P38041
T1 sequence (P38041 1-86, looked up): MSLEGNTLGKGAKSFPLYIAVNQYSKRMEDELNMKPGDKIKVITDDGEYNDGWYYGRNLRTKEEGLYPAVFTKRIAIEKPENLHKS
Assay: SPOT array
Conditions: median of control spots 1162
MEASURE: SPOT intensity

Previously resolved entries follow.
BINDER	SPOT intensity
QHQQRQPKRPKRYSL	13
RRSKSLPITPKSIFN	0
SSSSSPPPLPTRRDH	4
YSRKKLPVVLSKMTL	0
VPKEPAPAPPPEPDM	0
LRWRHKFFLPAIAAI	1

P. PELAPKREAPKPPAN
Q. LLGRKRPVMERVVDI
Qu. Decide: P or Q , by lowest recorded SPOT intensity. Answer by quoting the chosen item's label.
Ans. Q

1. MKRSRPSRSIPYTTP
2. RAPPPVPKKPSSRIA
3. KKIRLIFTYPSTVGR
4. TKFRISLGLPVGAIM
Qu. Highest SPOT intensity first, then in falling order down to the smallest. Lab note: final answer is the ordered label list.
Ans. 3, 1, 4, 2

a. ERPKRRAPPPVPKKP
b. NRARYLPQNPDIIAG
Qu. Between the two listed entries a and b , which has its SPOT intensity at the higher number? # answer = label of selected item
Ans. b
